testSystem: T1, Dpo1 exo- (SsoDpo1, B-family DNA polymerase) (Sulfolobus solfataricus, UniProt P26811 1-882, D231A;D318A)
T1 sequence: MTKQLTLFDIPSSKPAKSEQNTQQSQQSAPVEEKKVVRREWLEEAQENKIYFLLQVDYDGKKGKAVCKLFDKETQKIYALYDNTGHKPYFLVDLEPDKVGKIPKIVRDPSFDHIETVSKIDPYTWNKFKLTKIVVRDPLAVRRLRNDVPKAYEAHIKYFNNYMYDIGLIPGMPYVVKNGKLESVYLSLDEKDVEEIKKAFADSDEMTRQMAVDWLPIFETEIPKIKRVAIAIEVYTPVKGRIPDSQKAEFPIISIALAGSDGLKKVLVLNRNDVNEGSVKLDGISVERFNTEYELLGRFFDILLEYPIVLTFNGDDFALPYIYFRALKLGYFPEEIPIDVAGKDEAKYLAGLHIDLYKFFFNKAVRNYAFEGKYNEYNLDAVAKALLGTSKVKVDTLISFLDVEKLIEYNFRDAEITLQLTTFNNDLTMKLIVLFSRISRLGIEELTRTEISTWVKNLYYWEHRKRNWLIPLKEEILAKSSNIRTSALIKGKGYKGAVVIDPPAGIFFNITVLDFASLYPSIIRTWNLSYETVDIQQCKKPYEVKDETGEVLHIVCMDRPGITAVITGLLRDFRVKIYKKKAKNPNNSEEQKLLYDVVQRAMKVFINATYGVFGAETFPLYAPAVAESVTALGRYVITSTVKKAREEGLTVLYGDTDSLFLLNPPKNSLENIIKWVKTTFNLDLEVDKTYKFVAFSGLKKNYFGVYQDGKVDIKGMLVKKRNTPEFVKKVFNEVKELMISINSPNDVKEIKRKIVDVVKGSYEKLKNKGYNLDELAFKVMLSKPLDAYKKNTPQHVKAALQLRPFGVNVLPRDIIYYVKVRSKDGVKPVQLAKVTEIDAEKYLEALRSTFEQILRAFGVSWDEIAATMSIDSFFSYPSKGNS
procedureText: fluorescence anisotropy
valueKind: Kd (nM)

                                     binder  reportedvalue
0  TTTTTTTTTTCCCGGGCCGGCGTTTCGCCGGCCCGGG (structured_DNA) [37-nt hairpin primer-template, 5'-Cy3]            105

Recorded values, source paper PMC3477848.
